Measured ED50 anti-proliferative activity, listed per entry.
Tested on: granuloma
Assay: Anti-proliferative (anti-granulomatous) activity, cotton pellet granuloma
Format: in vivo, rat (Wistar, male)
Settings: rat, cotton pellet impregnated with product, 6 days

molecule	ED50 anti-proliferative activity
C[C@]12CCC(=O)C=C1CC[C@@H]1[C@@H]2[C@@H](O)C[C@@]2(C)[C@H]1CC[C@]2(O)C(=O)CO [Hydrocortisone (base), Hydrocortisone, reference compound]	10 mg/pellet
CC(=O)OCC(=O)[C@@]1(O)[C@H](C)C[C@H]2[C@@H]3CCC4=CC(=O)C=C[C@]4(C)[C@@]3(F)[C@@H](O)C[C@@]21C [Dexamethasone (acetate), Dexamethasone acetate, reference compound]	0.4 mg/pellet
C[C@]12CCC(=O)C=C1CC[C@@H]1[C@@H]2[C@@H](O)C[C@@]2(C)[C@H]1CC[C@]2(O)C(=O)CSC(=O)c1ccc(F)cc1 [JO 1026]	0.4 mg/pellet
CC(C)(C)C(=O)SCC(=O)[C@@]1(O)CC[C@H]2[C@@H]3CCC4=CC(=O)CC[C@]4(C)[C@H]3[C@@H](O)C[C@@]21C [JO 1016]	0.35 mg/pellet
C[C@@H]1C[C@H]2[C@@H]3CCC4=CC(=O)C=C[C@]4(C)[C@@]3(F)[C@@H](O)C[C@]2(C)[C@@]1(O)C(=O)CSC(=O)C(C)(C)C [JO 1008]	1 mg/pellet
